# method: Caco-2 cell permeability assay
# measurement_context: human, Caco-2
measured_endpoint: efflux ratio at 2 h, 25 microM

Measured efflux ratio at 2 h, 25 microM of CC(C)NCC(O)COc1cccc2ccccc12 (stereo not shown) [Propranolol, reference compound] : 1.9
